subjectOfTest: Fibroblast growth factor 2 (Homo sapiens) (UniProt P09038)
Sequence (P09038 whole entry, looked up): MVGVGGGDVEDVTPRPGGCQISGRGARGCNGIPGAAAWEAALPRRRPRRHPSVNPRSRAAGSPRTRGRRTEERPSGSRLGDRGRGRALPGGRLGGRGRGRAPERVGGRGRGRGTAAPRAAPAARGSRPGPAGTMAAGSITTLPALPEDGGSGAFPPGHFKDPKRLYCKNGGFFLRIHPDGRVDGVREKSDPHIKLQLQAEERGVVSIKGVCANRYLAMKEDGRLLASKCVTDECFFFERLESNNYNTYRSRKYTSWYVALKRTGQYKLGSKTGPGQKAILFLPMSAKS
assayNotes: basic fibroblast growth factor binding to printed compounds – biochemical, small-molecule microarray, 635/667 nm fluorescence, primary screen (AID 1133)
appliedConditions: FGF2, fluorescence 635/667, higher = more signal
endpointLabel: composite z-score

COc1cc2c(cc1OC)CN(C(=O)[C@H]1[C@@H]3C(=O)O[C@@H](c4ccccc4)[C@@H](c4ccccc4)N3[C@@H](c3ccccc3OCCO)[C@]13C(=O)Nc1ccc(C#CCCO)cc13)CC2
1.65
CCCCN1CC=CC23O[C@@H]4C=CCCOC(=O)C4[C@H]2C(=O)N(CCCCCO)[C@@H]3C1=O (stereo partly drawn)
-0.437

Now consider a different compound.
Inquiry: What value of composite z-score has been reported for the following compound? `COC(=O)[C@@]1(Cc2ccc(OC)cc2)[C@H]2c3cc(C(=O)N4CCCC4)n(CCSCCO)c3C[C@H]2CN1C(=O)c1ccccc1`
Reply text: -0.254

---

assayNotes: Pseudomonas biofilm growth suppression – PAO1 strain, BacTiter-Glo luminescence, LB-PBS, primary screen (AID 1144)
appliedConditions: P. aeruginosa PAO1 biofilm, 12 h, higher = more signal
Is z-score at least -0.6? Then Satisfied. If not, Not satisfied.

Sample answers from the record:
O=C1NC(=O)C2C1C=CC(C(O)c1ccc(-c3ccccc3)s1)N2Nc1ccc(Cl)cc1Cl (stereo unspecified)
Not satisfied
O=C1N(CCS(=O)(=O)c2ccccc2)c2ccccc2[C@@H]2OC(c3ccc(OCCCO)cc3)=N[C@]12Cc1ccccc1
Satisfied
CC(C)[Si](C#C[Si](C(C)C)(C(C)C)C(C)C)(O[C@H](C)c1cn(Cc2ccccc2)nn1)C(C)C
Satisfied

Inquiry: Please indicate if the recorded z-score for `COCCCNC(=O)[C@]1(Cc2ccccc2)N=C(c2ccc(OCCCO)cc2)O[C@@H]1c1ccccc1CN=[N+]=[N-]` meets or exceeds -0.6.
Reply text: Satisfied

Inquiry: Please indicate if the recorded z-score for `C=CC[C@]12N=C(c3ccc(OCCCO)cc3)O[C@H]1c1ccccc1N(CCS(=O)(=O)c1ccccc1)C2=O` meets or exceeds -0.6.
Reply text: Satisfied

Inquiry: Please indicate if the recorded z-score for `COC(=O)[C@@]1(Cc2ccc(OC)cc2)[C@H]2c3cc(C(=O)N4CCCC4)n(CCc4ccc(O)c(O)c4)c3C[C@H]2CN1C(=O)c1ccccc1` meets or exceeds -0.6.
Reply text: Satisfied

Inquiry: Please indicate if the recorded z-score for CC(c1ccccc1)C(O)C1C=CC2C(=O)N(c3ccccc3)C(=O)C2N1Nc1ccccc1 (stereo unspecified) meets or exceeds -0.6.
Reply text: Not satisfied

Inquiry: Please indicate if the recorded z-score for COc1cc(OC)c(C(O)C2C=CC3C(=O)NC(=O)C3N2Nc2ccccn2)cc1Br (stereo unspecified) meets or exceeds -0.6.
Reply text: Not satisfied

Inquiry: Please indicate if the recorded z-score for `CCCCCCc1nc(-c2ccc(-c3ccc(Cl)c(Cl)c3)o2)c(C)c2c1[Si](C(C)C)(C(C)C)OC2` meets or exceeds -0.6.
Reply text: Not satisfied

Inquiry: Please indicate if the recorded z-score for `C=CCOC(=O)[C@H]1[C@@H]2C(=O)O[C@@H](c3ccccc3)[C@@H](c3ccccc3)N2[C@@H](c2ccc(OCCOC(=O)[C@H]3C[C@H]4C(=O)N[C@@H](CCCCN(C)C)C(=O)N4[C@H]3c3cccc(OCCO)c3)cc2)[C@]12C(=O)Nc1ccc(I)cc12` meets or exceeds -0.6.
Reply text: Satisfied

---

assayNotes: plasmodial surface anion channel blockers, osmotic lysis – cell-based, P. falciparum Indochina, OD700, 1 h, primary screen (AID 1154)
appliedConditions: P. falciparum Indochina infected RBC osmotic lysis, called active from +8 up or from −8 down
Active and inactive are the calls of the source.
Give one outcome, nothing more. List: YES = active, NO = inactive

Sample answers from the record:
COc1ccc(NC(=O)O[C@H]2[C@H](OC(=O)c3cc4ccccc4[nH]3)[C@@H](OC(=O)c3cc4ccccc4[nH]3)[C@@H](OC)O[C@@H]2CO)cc1
NO
NC(=O)[C@@]1(Cc2ccccc2)N=C(c2ccc(OCCCO)cc2)O[C@H]1c1ccccc1
YES
CC(c1ccccc1)C(O)C1C=CC2C(=O)N(c3ccccc3)C(=O)C2N1Nc1ccccc1 (configuration not stated)
NO
O=C(O)C1N=C(c2ccc(OCCCO)cc2)N(c2ccccc2)O1 (configuration not stated)
YES
O=C1O[C@@H](c2ccccc2)[C@@H](c2ccccc2)N2[C@@H](c3ccc(OCCO)cc3)[C@]3(C(=O)Nc4ccc(C#CC5=CCCCC5)cc43)[C@@H](C(=O)N3CCCCCCC3)[C@H]12
NO
COc1ccc([Si](C)(C)[C@@H]2[C@@H](CCn3cc(CCO)nn3)O[C@]3(C(=O)N(Cc4cccc(N5C(=O)c6cccc7cccc5c67)c4)c4ccccc43)[C@H]2C)cc1
NO

Inquiry: Tell me the assay call for `C=C(/C(=C/C[C@H](OC(=O)c1ccncc1)c1ccc(OCCO)cc1)c1cc(C(=O)OC)ccc1OC)C(C)C` please.
Reply text: YES

---

assayNotes: viability profiling in MM1S myeloma cells – cell-based, resazurin fluorescence, basal, 24 h, PK04 Diversity Set, profiling panel (AID 1174);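 note: MM1S multiple myeloma cell line; test concentration not given here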
appliedConditions: higher = more signal, called active from +8 up or from −8 down
Assign z-score to each entry below.
One number for each entry.

Field: example entries. Status: answers known.
CC(C)CN1C(=O)[C@@]2(c3ccc([N+](=O)[O-])cc3)CC(=O)N(C3CCCCC3)[C@@H]2c2ccc(CO)cc21
-0.248
COCCOC(=O)N1C(=O)[C@@]2(c3ccccc31)[C@H](c1ccc(OCCO)cc1)N1[C@H](c3ccccc3)[C@H](c3ccccc3)OC(=O)[C@H]1[C@@H]2C(=O)N1CCc2cc(OC)c(OC)cc2C1
0.102

Now consider a different molecule.
Inquiry: What value of z-score has been reported for the following molecule? [N-]=[N+]=NCc1ccccc1C[C@@]1(C(=O)NCC(O)CO)N=C(c2ccc(OCCCO)cc2)O[C@@H]1c1ccccc1 (stereo partly drawn)
Reply text: -0.243

---

subjectOfTest: Torsin-1A (Homo sapiens)
assayNotes: TOR1A wild-type binding on microarray – cell lysate, small-molecule microarray, lysate, 635/667 nm, primary screen (AID 1149)
appliedConditions: COS7 hTOR1A-WT lysate, 635 nm fluorescence, higher = more signal
Is composite z-score at least 0.3? Then Fulfilled. If not, Not fulfilled.

O=C1C2C=CC(C(O)COCc3ccccc3)N(Nc3ccc([N+](=O)[O-])cc3)C2C(=O)N1c1ccccc1 (configuration not stated)
Not fulfilled
COc1cc2c(cc1OC)CN(C(=O)[C@H]1[C@@H]3C(=O)O[C@@H](c4ccccc4)[C@@H](c4ccccc4)N3[C@@H](c3ccccc3OCCO)[C@]13C(=O)Nc1ccc(C#CCCO)cc13)CC2
Not fulfilled
O=C(NC1CC1)[C@@H]1c2ccccc2C(=O)N(Cc2cc(F)cc(C(F)(F)F)c2)[C@H]1c1ccc(CO)cc1
Fulfilled
CC(C)(C)OC(=O)CC[C@@]1(C(=O)N2CCCCC2)N=C(c2ccc(OCCCO)cc2)O[C@@H]1c1ccccc1
Fulfilled
[N-]=[N+]=Nc1ccccc1C[C@]1(C(=O)N2CCCCC2)COC(c2ccc(OCCCO)cc2)=N1
Fulfilled
COc1cc(CO)cc(I)c1O[C@H]1C=C(C(=O)NCCO)C[C@@H](N(C(=O)c2cc3ccccc3oc2=O)C2CCCCCC2)[C@@H]1O
Not fulfilled
C=C(CCCC)/C(=C/C[C@@H](OC(C)=O)c1cccc(OCCO)c1)c1cnc2ccccc2c1
Fulfilled
COC(=O)c1c2oc(c1C(=O)OC)C(=O)N[C@@H](C(C)C)Cn1cc(nn1)C1(CCCCC1)NC(=O)N[C@H](CO)CC2
Fulfilled

Inquiry: Please indicate if the recorded composite z-score for Cc1ccc(C2C3C(=O)CC4C(=O)N(c5ccccc5)C(=O)C4C3CN2S(=O)(=O)c2ccc(C)cc2)cc1 (configuration not stated) meets or exceeds 0.3.
Reply text: Not fulfilled

---

assayNotes: optical density shifts of acrAB sulA E. coli – strain DRC41, OD650, 48 h, E. coli filamentation inducer project, primary screen (AID 1152);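 note: E. coli MC1000 strain DRC41 lacking acrAB efflux pump and sulA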
appliedConditions: higher = more signal, called active from +8 up or from −8 down
Is z-score at least -0.4? Then Satisfied. If not, Not satisfied.

Sample answers from the record:
COC(=O)C(CC#Cc1ccc2c(c1)[C@]1(C(=O)N2)[C@H](c2ccc(O)cc2)N2[C@H](c3ccccc3)[C@H](c3ccccc3)OC(=O)[C@H]2[C@@H]1C(=O)N1CCN(c2ncccn2)CC1)C(=O)OC
Satisfied
COCCOC(=O)N1C(=O)[C@@]2(c3cc(C#CCCO)ccc31)[C@H](c1ccc(O)cc1)N1[C@H](c3ccccc3)[C@H](c3ccccc3)OC(=O)[C@H]1[C@@H]2C(=O)N1CCN(c2ncccn2)CC1
Satisfied
COc1ccc(C(=O)Nc2ccc(CN3C(=O)[C@]4(O[C@H](CC(=O)N5CCC[C@H]5CO)[C@@H]([Si](C)(C)c5ccc(OC)cc5)[C@@H]4C)c4ccccc43)cc2)cc1
Not satisfied
CCOC(=O)[C@H]1C/C=C/C[C@H](C(=O)OCC)C(=O)O[C@H]2[C@@H](OC)O[C@H](CO)[C@@H](OC(=O)c3ccc(Br)cc3)[C@@H]2OC1=O
Satisfied

Read the next record carefully.
Inquiry: Please indicate if the recorded z-score for `COC(=O)[C@@]1(Cc2ccccc2)[C@H]2c3cc(C(=O)N4CCCC4)n(Cc4c(CO)[nH]cc(C)c4=O)c3C[C@H]2CN1C(=O)c1ccccc1` meets or exceeds -0.4.
Reply text: Not satisfied
